molecular target: serotonin receptor 5-HT1A (Homo sapiens); assay: NIH-PDSP binding assay, 5-HT1A (3H-8-OH-DPAT); settings: Table 7, Homologues Type I (Aminoethane Derivatives); — = No significant inhibition
Sequence (P08908 whole entry): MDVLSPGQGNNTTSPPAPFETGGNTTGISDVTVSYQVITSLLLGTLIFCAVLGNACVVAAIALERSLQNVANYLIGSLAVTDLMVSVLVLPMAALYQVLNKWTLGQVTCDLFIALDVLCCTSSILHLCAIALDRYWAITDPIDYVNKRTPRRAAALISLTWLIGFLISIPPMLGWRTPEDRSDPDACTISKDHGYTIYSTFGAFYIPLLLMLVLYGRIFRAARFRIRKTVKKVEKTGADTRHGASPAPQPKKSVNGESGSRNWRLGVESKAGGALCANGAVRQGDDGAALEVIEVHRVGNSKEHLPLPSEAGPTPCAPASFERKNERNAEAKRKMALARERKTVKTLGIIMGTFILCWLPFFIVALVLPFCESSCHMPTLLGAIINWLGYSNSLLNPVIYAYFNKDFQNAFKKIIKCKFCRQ
quantity.kind: pKi
pKi is defined as minus the log10 of a concentration measured in mol/L.

Some molecules with known pKi results, for comparison:
molecule	quantity.kind	result.number
COc1ccccc1N1CCN(CC(Oc2ccc(C(F)(F)F)cc2)c2ccccc2)CC1 (centres unmarked)	pKi	7.66
FC(F)(F)c1ccc(OC(CN2CCN(c3ccccc3)CC2)c2ccccc2)cc1 (centres unmarked)	pKi	6.41
Fc1ccc(OC(CN2CCN(c3ccccc3)CC2)c2ccccc2)cc1 (centres unmarked)	pKi	7.00
Fc1ccc2c(C3CCN(CC(Oc4ccc(C(F)(F)F)cc4)c4ccccc4)CC3)noc2c1 (centres unmarked) [Compound 13b]	pKi	5.70
FC(F)(F)c1ccc(OC(CN2CCN(c3cccc(Cl)c3)CC2)c2ccccc2)cc1 (centres unmarked)	pKi	6.19
O=C(CCCN1CCN(CC(Oc2ccc(F)cc2)c2ccccc2)CC1)c1ccc(F)cc1 (centres unmarked) [Compound 14b]	pKi	5.93

Param item = O=C(CCCN1CCN(CC(Oc2ccc(C(F)(F)F)cc2)c2ccccc2)CC1)c1ccc(F)cc1 (centres unmarked) [Compound 15b] ; retrieve measured pKi.
5.56

Param item = FC(F)(F)c1ccc(OC(CN2CCN(c3cccc(C(F)(F)F)c3)CC2)c2ccccc2)cc1 (centres unmarked) ; retrieve measured pKi.
5.84
